Data provenance is paper PMC10977697.

test system: CD16A; experiment: Spot phage ELISA, CD16A; assay type: binding, human; conditions: spot phage ELISA signal-to-noise on CD16A
Where no end group is shown, it is not given here.
Measurement Kind: S/N

[[record]]
sequence_string = "GPTQSEGGQCGGIGYSGPTVCASGTTCQVLGPMWSFCLPGAS (disulfide (positions not given here)) [CD16A CBD 10]"
assay_result = 5.9


Return reported S/N values for all items listed beneath this line.
1. GPTQSHYGQCGGLGYFGQWFCSGTTCQMMSPYGSQCLPGAST (disulfide (positions not given here)) [CD16A CBD 9]
2. GCDMPSWDNVWPCKQDSDCLAGCVCGPNGFC (disulfide (positions not given here)) [CD16A EETI-II 28]
3. GCQVDPWGHQMDCKQDSDCLAGCVCGPNGFC (disulfide (positions not given here)) [CD16A EETI-II 32]
4. GCDDILRACKQDSDCLAGCVCEEETLCG (disulfide (positions not given here)) [CD16A EETI-II 9]

1: 8.3; 2: 19.8; 3: 22.9; 4: 17.8

Okay, here is my list. What is S/N for each of these?
1. GCPRILMRCKQDPDCLAGCVCDEEQLCG (disulfide (positions not given here)) [CD16A EETI-II 1]
2. GPTQSWDGQCGGIGYSGPTVCASGTTCQVLSPYLSYCLPGAS (disulfide (positions not given here)) [CD16A CBD 6]

1. 25.4
2. 15.7
